Where these numbers come from: patent US20260356856A1

EXPERIMENTAL TARGET: KRas-mediated phosphorylation of ERK in H358 cells (Homo sapiens, UniProt P01116, G12C)
Construct: pERK HTRF read-out
Sequence (P01116 1-188 isoform P01116-2 G12C): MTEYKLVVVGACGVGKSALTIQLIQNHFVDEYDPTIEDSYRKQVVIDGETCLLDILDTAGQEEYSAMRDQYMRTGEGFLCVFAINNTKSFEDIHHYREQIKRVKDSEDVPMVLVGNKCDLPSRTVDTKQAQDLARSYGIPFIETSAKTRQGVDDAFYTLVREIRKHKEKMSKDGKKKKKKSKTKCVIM
PROCEDURE TEXT: Inhibition of KRas-mediated phosphorylation of ERK (HTRF), H358 cells
Format: cell-based
TEST CONTEXT: HTRF pERK, 3 h incubation
Readings of log10 IC50 for the listed compounds
All values: base-10 log of IC50 in nM.

Some entries whose results are on file:
>>> recorded_result("N#Cc1c(N)sc2c(F)ccc(-c3c(Cl)cc4c(N5CCC(C(=O)Oc6ccccc6)CC5)nc(OC[C@@]56CCCN5C[C@H](F)C6)nc4c3F)c12")
1.11
>>> recorded_result("CCc1c(F)ccc2cc(O)cc(-c3ncc4c(N5CCN(C(=O)n6ccc(C)n6)C(C)C5)nc(OC[C@@]56CCCN5C[C@H](F)C6)nc4c3F)c12 (stereo partly drawn)")
2.70
>>> recorded_result("CC(=O)N(C)C(=O)C1CCCN(c2nc(OC[C@@]34CCCN3C[C@H](F)C4)nc3c(F)c(-c4ccc(F)c5sc(N)c(C#N)c45)c(Cl)cc23)CC1 (stereo partly drawn)")
1.46

In: Output log10 IC50 of CCc1c(F)ccc2cc(O)cc(-c3ncc4c(N5CCCCC(C(=O)N(C)C(C)=O)CC5)nc(OC[C@@]56CCCN5C[C@H](F)C6)nc4c3F)c12 (stereo partly drawn)
Out: 2.21

In: Item CCc1c(F)ccc2cc(O)cc(-c3ncc4c(N5CCN(C(=O)n6ccnn6)CC5)nc(OC[C@@]56CCCN5C[C@H](F)C6)nc4c3F)c12 : provide log10 IC50
Out: 1.15

In: For the compound CCc1c(F)ccc2cc(O)cc(-c3ncc4c(N5CC(CC(=O)n6ccc(C)n6)C5)nc(OC[C@@]56CCCN5C[C@H](F)C6)nc4c3F)c12 , give its measured log10 IC50 value.
Out: 3.88
